Hello, the source for this data is patent US8686048B2, in case you need it.

target of assay: h-DHODH (Homo sapiens, UniProt Q02127)
Construct: endogenous in cells; host or cells: U937 cells (membrane fraction, solubilised with 1% octyl glucoside)
Sequence (Q02127 whole entry): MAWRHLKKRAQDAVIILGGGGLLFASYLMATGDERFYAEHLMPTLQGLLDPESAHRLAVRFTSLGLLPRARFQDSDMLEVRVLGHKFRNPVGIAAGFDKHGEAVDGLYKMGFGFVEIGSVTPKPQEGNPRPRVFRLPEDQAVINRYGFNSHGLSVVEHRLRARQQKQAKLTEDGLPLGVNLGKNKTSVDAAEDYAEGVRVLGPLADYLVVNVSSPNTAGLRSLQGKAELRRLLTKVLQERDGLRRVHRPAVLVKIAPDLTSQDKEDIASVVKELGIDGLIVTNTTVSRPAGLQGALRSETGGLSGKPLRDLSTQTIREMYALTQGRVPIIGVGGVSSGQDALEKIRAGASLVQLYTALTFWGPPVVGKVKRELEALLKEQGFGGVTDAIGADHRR
protocol text: Dihydro-orotate dehydrogenase inhibition assay (U937 membrane preparations, DCIP reduction)
Type: biochemical
test parameters: 1 uM; U937 membrane preparation
reported property: inhibition at 1 µM (%)

# annotated cases, reported inhibition at 1 µM shown
# molecular string, reading
records = [
    ("CCOc1cccc(-c2cc(F)c(NC(=O)c3cccc(F)c3C(=O)O)c(Cl)c2)c1", 27.8),
    ("CCCCOc1cccc(-c2c(F)cc(NC(=O)c3ccccc3C(=O)O)cc2F)c1", 31),
    ("O=C(O)c1ccccc1C(=O)Nc1c(F)cc(-c2cccc(OC(F)F)c2)cc1Cl", 71.1),
    ("O=C(O)c1ccccc1C(=O)Nc1c(F)cc(-c2cccc(OCc3ccccc3)c2)cc1F", 76.4),
    ("CCOc1cccc(-c2ccc(NC(=O)c3ccccc3C(=O)O)cc2)c1", 14),
]

[1] COc1cccc(-c2ccc(NC(=O)c3ccccc3C(=O)O)cn2)c1
[2] CCCCOc1cccc(-c2ccc(NC(=O)c3ccccc3C(=O)O)c(F)c2)c1
[3] O=C(O)c1ccccc1C(=O)Nc1c(F)cc(-c2cccc(OC(F)(F)F)c2)cc1Cl
Q) Rank items: key inhibition at 1 µM, increasing. // ordering of labels required in reply
A) 2, 1, 3
(2: 9.65%, 1: 14.3%, 3: 74.4%)

---

Recorded measurements of melting point, one per entry

# annotated cases, reported melting point shown
# molecular string, melting point
records = [
    ("CCCCOc1cccc(-c2ccc(NC(=O)c3ccccc3C(=O)O)cc2F)c1", "164 to 167 °C"),
    ("COc1cccc(-c2cc(F)c(NC(=O)c3ccccc3S(=O)(=O)O)c(F)c2)c1", "97 to 102 °C"),
    ("CCc1c[nH]c2ccc(-c3cc(F)c(NC(=O)c4ccccc4C(=O)O)c(Cl)c3)cc12", "98 to 102 °C"),
    ("COc1cccc(-c2cc(Cl)c(NC(=O)c3ccccc3C(=O)O)c(Cl)c2)c1", "163 to 168 °C"),
    ("O=C(O)c1ccccc1C(=O)Nc1ccc(-c2ccccc2F)cc1OC(F)(F)F", "142.2 to 148.1 °C"),
    ("O=C(O)c1ccccc1C(=O)Nc1ccc(-c2ccccc2Cl)cc1", "243 to 247 °C"),
]

Record CC(C)COc1cccc(-c2cc(F)c(NC(=O)c3ccccc3C(=O)O)c(F)c2)c1 . Reported melting point: 112.6 to 116.4 °C

Record CCCOc1cccc(-c2cc(F)c(NC(=O)c3ccccc3C(=O)O)c(F)c2)c1 . Reported melting point: 128.6 to 132.1 °C

Record O=C(O)c1ccccc1C(=O)Nc1c(F)cc(-c2ccccc2)cc1F . Reported melting point: 161.2 to 165.7 °C

---

reported property: melting point

# annotated cases, reported melting point shown
# compound, melting point
records = [
    ("CCCCOc1cccc(-c2cc(F)c(NC(=O)c3ccccc3C(=O)O)c(Cl)c2)c1 [Example 29]", "128 to 130 °C"),
    ("CC(C)Oc1cccc(-c2cc(F)c(NC(=O)c3ccccc3C(=O)O)c(F)c2)c1 [Example 25]", "122 to 125 °C"),
]

Record O=C(O)c1ccccc1C(=O)Nc1c(F)cc(-c2cccc(OCc3ccccc3)c2)cc1F [Example 13] . Reported melting point: 140.3 to 143.4 °C

Record O=C(O)c1cc(Cl)c(Cl)cc1C(=O)Nc1c(F)cc(-c2ccccc2Cl)cc1F [Example 30] . Reported melting point: 202 to 205.5 °C

Record CCOc1cccc(-c2cc(F)c(NC(=O)c3cc(Cl)c(Cl)cc3C(=O)O)c(F)c2)c1 [Example 17] . Reported melting point: 190.1 to 192.4 °C

Record CCCCOc1cccc(-c2c(F)c(F)c(NC(=O)c3ccccc3C(=O)O)c(F)c2F)c1 [Example 91] . Reported melting point: 215.5 to 218.5 °C

Record CCOc1cccc(-c2cc(F)c(NC(=O)c3nccnc3C(=O)O)c(F)c2)c1 [Example 7] . Reported melting point: 133.4 to 137.3 °C

Record CCCOc1cccc(-c2cc(F)c(NC(=O)c3ccccc3C(=O)O)c(Cl)c2)c1 [Example 19] . Reported melting point: 144 to 148 °C
